- Test method notes: Pharmacokinetics in mice
- Format: in vivo
- Applied conditions: 50 mg/kg intraperitoneal, plasma
Property label: Cmax (µM)
Please respond with the number in µM and leave the unit unwritten.

Entry `CNC(=O)CCCn1c(-c2cncc3ccccc23)nc2cccc(C(=O)N[C@@H](C)c3ccc4ccccc4c3)c21` has what Cmax?
8.93

###

- Test method notes: Pharmacokinetics in mice
- Assay type: in vivo
- Applied conditions: mouse, ip, 50 mg/kg intraperitoneal, plasma, read-out: Tmax
Property label: Tmax (min)
Please respond with the number in min and leave the unit unwritten.

Entry CNC(=O)[C@H]1C[C@H](n2c(-c3cncc4ccccc34)nc3cccc(C(=O)NC(C)c4ccc5ccccc5c4)c32)C1 (stereo partly shown) has what Tmax?
19.8
